FYI, the data here is from patent US20230263822A1.

assay: Hematology assays in cynomolgus monkeys (Example 45); format: in vivo; conditions: day 71; escalating dose regimen
Measured hemoglobin accompanies every entry in the list below.
measurementKind: hemoglobin (g/dL)

substance="ISIS 416858: MOE gapmer, nucleobases 1275 to 1318 of SEQ ID NO: 1 (Table 8) (antisense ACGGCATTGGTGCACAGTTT; MOE gapmer, wing and gap sizes not given here)" measurementkind=hemoglobin quantitativeresult=12.7
substance="ISIS 417002: MOE gapmer, nucleobases 1275 to 1318 of SEQ ID NO: 1 (Table 8) (antisense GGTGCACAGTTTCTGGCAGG; MOE gapmer, wing and gap sizes not given here)" measurementkind=hemoglobin quantitativeresult=12.5

====

tested on: human Factor 11 mRNA; assay: Antisense inhibition of human Factor 11 in HepG2 cells, lipofectin, 75 nM (Example 1); assay type: cell-based; details: 75 nM antisense oligonucleotide, ~24 h, relative to untreated control cells, gapmers targeted to SEQ ID NO: 1
Strand notation (5' to 3'): a small letter for the sugar, then the base; units joined by * are phosphorothioate-linked, units joined directly phosphodiester-linked; [ ] holds rarer units or linkages, { } end groups; capitals alone tell only the bases. e = 2'-O-(2-methoxyethyl) (MOE); [5mC] = 5-methylcytosine; d = 2'-deoxy (DNA)
measurementKind: % inhibition (%)

substance="412203 (antisense eA*eA*eT*eG*eT*d[5mC]*dT*dT*dT*dG*dT*dT*dG*d[5mC]*dA*eA*eG*e[5mC]*eG*e[5mC]) [compound 412203]" measuredtarget="human Factor 11 mRNA" unitannotation=% quantitativeresult=91
substance="413480 (antisense eA*eA*eG*eA*eA*dA*dT*d[5mC]*dA*dG*dT*dG*dT*d[5mC]*dA*eT*eG*eG*eT*eA) [compound 413480]" measuredtarget="human Factor 11 mRNA" unitannotation=% quantitativeresult=71
substance="412204 (antisense eT*eT*e[5mC]*eA*eT*dG*dT*d[5mC]*dT*dA*dG*dG*dT*d[5mC]*d[5mC]*eA*e[5mC]*eA*eT*eA) [compound 412204]" measuredtarget="human Factor 11 mRNA" unitannotation=% quantitativeresult=74
substance="413471 (antisense eT*e[5mC]*eA*eG*eT*dA*dG*dA*d[5mC]*dA*dA*dA*dT*dG*dT*eT*eA*e[5mC]*eG*eA) [compound 413471]" measuredtarget="human Factor 11 mRNA" unitannotation=% quantitativeresult=67
substance="412255 (antisense eG*e[5mC]*e[5mC]*eA*e[5mC]*dT*dA*d[5mC]*dT*dT*dG*dG*dT*dT*dA*eT*eT*eT*eT*e[5mC]) [compound 412255]" measuredtarget="human Factor 11 mRNA" unitannotation=% quantitativeresult=38
substance="413468 (antisense eG*eT*e[5mC]*eT*eA*dG*dG*dT*d[5mC]*d[5mC]*dA*d[5mC]*dA*dT*dA*eA*eA*eT*eG*eT) [compound 413468]" measuredtarget="human Factor 11 mRNA" unitannotation=% quantitativeresult=84
substance="412198 (antisense eT*eT*e[5mC]*eA*eG*dG*dA*d[5mC]*dA*d[5mC]*dA*dA*dG*dT*dA*eA*eA*e[5mC]*e[5mC]*eA) [compound 412198]" measuredtarget="human Factor 11 mRNA" unitannotation=% quantitativeresult=21
substance="412209 (antisense eG*eT*eG*e[5mC]*eT*dT*d[5mC]*dA*dG*dT*dA*dG*dA*d[5mC]*dA*eA*eA*eT*eG*eT) [compound 412209]" measuredtarget="human Factor 11 mRNA" unitannotation=% quantitativeresult=91
substance="413496 (antisense eG*eG*e[5mC]*eA*e[5mC]*dA*dG*dA*dT*d[5mC]*dA*dT*d[5mC]*dT*dT*eA*eT*eG*eG*eG) [compound 413496]" measuredtarget="human Factor 11 mRNA" unitannotation=% quantitativeresult=72
substance="412233 (antisense eT*eG*eT*e[5mC]*eT*d[5mC]*dT*dG*dA*dG*dT*dG*dG*dG*dT*eG*eA*eG*eG*eT) [compound 412233]" measuredtarget="human Factor 11 mRNA" unitannotation=% quantitativeresult=64
substance="412256 (antisense eA*eA*e[5mC]*eA*eA*dA*dT*d[5mC]*dT*dA*dT*dT*dT*dA*dT*eG*eG*eT*eG*eG) [compound 412256]" measuredtarget="human Factor 11 mRNA" unitannotation=% quantitativeresult=39
substance="412264 (antisense e[5mC]*eA*e[5mC]*eA*e[5mC]*dT*dT*dG*dA*dT*dG*dA*dA*dT*dT*eG*eT*eA*eT*eA) [compound 412264]" measuredtarget="human Factor 11 mRNA" unitannotation=% quantitativeresult=27
